Target: ectodomain of human CD98hc (human) (UniProt P08195)
Sequence (P08195 206-630): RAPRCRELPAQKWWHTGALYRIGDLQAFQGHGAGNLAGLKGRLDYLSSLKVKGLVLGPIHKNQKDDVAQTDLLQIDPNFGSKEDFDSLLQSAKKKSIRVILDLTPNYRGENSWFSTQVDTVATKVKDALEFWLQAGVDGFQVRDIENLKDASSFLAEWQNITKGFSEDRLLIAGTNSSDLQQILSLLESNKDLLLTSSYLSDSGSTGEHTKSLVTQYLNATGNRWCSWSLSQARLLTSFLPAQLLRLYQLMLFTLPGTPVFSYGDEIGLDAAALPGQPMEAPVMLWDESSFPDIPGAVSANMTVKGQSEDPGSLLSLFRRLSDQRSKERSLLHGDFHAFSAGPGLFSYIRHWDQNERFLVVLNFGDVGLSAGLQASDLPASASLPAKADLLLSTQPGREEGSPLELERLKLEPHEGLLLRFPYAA
Assay: ELISA, expression medium of VNAR-hFc on coated protein
Field: label. Allowed values: t (Binding [relative units] (relative units) < 0.05) or f (Binding [relative units] (relative units) >= 0.05).

Observe how each entry below is paired with its result.
# binder, assigned category
data = [
    ("VNAR clone H8 fused N-terminally to human IgG1 Fc (VNAR-hFc) (Fc fusion, not shown: a dimerising Fc or GST) ARVDQTPQTITKETGESLTINCVLRDSNCALPSTYWYRKKSGSTNEESISKGGRYVETVNSGSKSFSLRINDLVVEDSGTYRCKVGNYCIRLCYDMKFAVDVYGGGTAVTVNA", "t"),
    ("VNAR clone G6 fused N-terminally to human IgG1 Fc (VNAR-hFc) (Fc fusion, not shown: a dimerising Fc or GST) ARVDQTPQTITKEEGESLTINCVLRVETRALASTSWYRKKSGSTREETISKGGRYVETVNSGSKSFSLRINDLTVEDSGTYRCNVYIRHYSEFTQAPFRDVYGDGTAVTVNA", "t"),
    ("VNAR clone A8 fused N-terminally to human IgG1 Fc (VNAR-hFc) (Fc fusion, not shown: a dimerising Fc or GST) ARVDQTPQTITKEEGESLTINCVLRRNFQLASTSWYRKKSGSTREETISKGGRYVETVNSGSKSFSLRINDLTVEDSGTYRCNVYGFVEFAKNIVEFIDVYGDGTAVTVNA", "f"),
    ("VNAR clone H7A fused N-terminally to human IgG1 Fc (VNAR-hFc) (Fc fusion, not shown: a dimerising Fc or GST) PGVDQTEQTIKKEEGESVTIKCVMRVKYPALASTSRYRKKSGSREETISKGGRYVETVNYSSKSISVRINDMTVEDSGRYRCNVYEEYAVDCDALVYQDVYGDGTAVTVNA", "t"),
]

Hello, I'm reviewing records and need to know if Binding [relative units] (relative units) of VNAR clone C6 fused N-terminally to human IgG1 Fc (VNAR-hFc) (Fc fusion, not shown: a dimerising Fc or GST) ARVDQTPQTITKETGESLTINCVLRDSNCALSSTYWYRKKSGSTNEALISKGGRYVETVNSGSKSFSLRINDLTVEDSGTYRCNVVYDLRDDCFFRDVYGGGTAVTVNA is below 0.05. Could you check?
t

Hello, I'm reviewing records and need to know if Binding [relative units] (relative units) of VNAR clone H12 fused N-terminally to human IgG1 Fc (VNAR-hFc) (Fc fusion, not shown: a dimerising Fc or GST) ARVDQTPQTITKEEGESLTINCVLRVHGCALASTSWYRKKSGSTREETISKGGRYVETVNSGSKSFSLRINDLTVEDSGTYRCNVYGLSFVDIEGVKKIDVYGDGTAVTVNA is below 0.05. Could you check?
t
